# Test system: PC-3 cells
# measurement-parameters: human, 72 h
In plain terms, low IC50, meaning strictly below 20 µM, gives T, and everything else gives F.

Some solved entries appear below for comparison.
- compound: "CC1(C)CCC(O)C=C1/C=C/C(=O)/C=C/c1cnc2ccccc2c1 (centres unmarked)"
  classification: "T"
- compound: "CC(=O)N1N=C(/C=C/C2=C(C)C(O)CCC2(C)C)CC1c1cccc(C(F)(F)F)c1 (centres unmarked)"
  classification: "F"

Would you kindly verify if IC50 of CC1=CCCC(C)(C)C1/C=C/C(=O)/C=C/c1cccc(C(F)(F)F)c1 (centres unmarked) is strictly less than 20 µM?
T

Would you kindly verify if IC50 of CC(=O)N1N=C(/C=C/C2C(C)=CCCC2(C)C)CC1c1cccc(C(F)(F)F)c1 (centres unmarked) is strictly less than 20 µM?
T

Would you kindly verify if IC50 of COc1ccc(C2CC(/C=C/C3=C(C)C(O)CCC3(C)C)=NN2C(C)=O)cc1OC (centres unmarked) is strictly less than 20 µM?
F

---

# Tested on: PC-3 cells
# test-method-notes: MTT cell growth inhibition, PC-3
# measurement-parameters: read-out: Cellular IC50 (μM) PC-3, Table 9
quantity: IC50 (µM)
Reply with just the number (in µM).

- molecule: "CC1(C)CCC(O)C=C1/C=C/C(=O)/C=C/c1cccc2cc[nH]c12 (centres unmarked) [Compound B90]"
  IC50 / µM: 2.1
- molecule: "CC1(C)CCC(O)C=C1/C=C/C(=O)/C=C/c1ccc2c(c1)CCO2 (centres unmarked) [Compound B79]"
  IC50 / µM: 14.8
- molecule: "CC1(C)CCC(O)C=C1/C=C/C(=O)/C=C/c1ccc2[nH]ccc2c1 (centres unmarked) [Compound B89]"
  IC50 / µM: 3.1

Request the reported IC50 associated with CC1(C)CCC(O)C=C1/C=C/C(=O)/C=C/c1ccc2ccccc2n1 (centres unmarked) [Compound B94]
5.5

Request the reported IC50 associated with Cn1cc(/C=C/C(=O)/C=C/C2=CC(O)CCC2(C)C)c2ccccc21 (centres unmarked) [Compound B88]
54.9

---

Property: IC50; scope: individual molecules
# Test system: 22Rv1 cells
# test-method-notes: MTT cell growth inhibition, 22Rv1
# measurement-parameters: read-out: Cellular IC50 (μM) 22Rv1; Table 2; MTT, 72 h
Reply with just the number (in µM).

Guide cases for IC50, answers given:
- compound-smiles: "COc1ccc(/C=C/C(=O)/C(=C/c2ccc(OC)nc2)C(=O)/C=C/C2=C(C)CCCC2(C)C)cn1"
  IC50 (µM): 9.9
- compound-smiles: "COc1ccc(C=CC(=O)C(=Cc2ccc(OC)c(O)c2)C(=O)C=CC2=C(C)CCCC2(C)C)cc1O"
  IC50 (µM): 5.2
- compound-smiles: "COc1cc(C=CC(=O)C(=Cc2cc(OC)c(OC)c(OC)c2)C(=O)C=CC2=C(C)CCCC2(C)C)cc(OC)c1OC"
  IC50 (µM): 1.5
- compound-smiles: "COc1cc(C=CC(=O)C(=Cc2cc(OC)c(O)c(OC)c2)C(=O)C=CC2=C(C)CCCC2(C)C)cc(OC)c1O"
  IC50 (µM): 17.6
- compound-smiles: "CC1=C(C=CC(=O)C(=Cc2ccc(O)cc2)C(=O)C=Cc2ccc(O)cc2)C(C)(C)CCC1"
  IC50 (µM): 4.7

Record lookup: for 22Rv1 cells, what IC50 belongs to CCn1c2ccccc2c2cc(/C=C(\C(=O)/C=C/C3=C(C)CCCC3(C)C)C(=O)/C=C/c3ccc4c(c3)c3ccccc3n4CC)ccc21 ?
31.6

Record lookup: for 22Rv1 cells, what IC50 belongs to COc1ccc(C=CC(=O)C(=Cc2ccc(OC)c(OC)c2)C(=O)C=CC2=C(C)CCCC2(C)C)cc1OC ?
49.7

---

# System: C4-2B cells;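 note: cells treated with a dilution series for 72 h, then MTT added and absorbance read at 600 nm, IC50 fitted from dose-response curves by nonlinear regression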
# measurement-parameters: human, 72 h
quantity: pIC50
// scale note: pIC50 = -log10(conc_M); give the bare number

- molecule: "CC(=O)N1N=C(/C=C/C2=C(C)C(O)CCC2(C)C)CC1c1cccc(C(F)(F)F)c1 (centres unmarked)"
  study-system: "C4-2B cells"
  quantity: "pIC50"
  readout-number: 4.75
- molecule: "CC1=CCCC(C)(C)C1/C=C/C(=O)/C=C/c1cccc(C(F)(F)F)c1 (centres unmarked)"
  study-system: "C4-2B cells"
  quantity: "pIC50"
  readout-number: 5.36
- molecule: "CC(=O)N1N=C(/C=C/C2C(C)=CCCC2(C)C)CC1c1ccccc1C(F)(F)F (centres unmarked)"
  study-system: "C4-2B cells"
  quantity: "pIC50"
  readout-number: 4.78
- molecule: "CC(=O)N1N=C(/C=C/C2C(C)=CCCC2(C)C)CC1c1ccc(C(F)(F)F)cc1 (centres unmarked)"
  study-system: "C4-2B cells"
  quantity: "pIC50"
  readout-number: 4.84

Request the reported pIC50 associated with CC1(C)CCC(O)C=C1/C=C/C(=O)/C=C/c1cnc2ccccc2c1 (centres unmarked)
6.06

Request the reported pIC50 associated with CC(=O)N1N=C(/C=C/C2C(C)=CCCC2(C)C)CC1c1cccc(C(F)(F)F)c1 (centres unmarked)
4.91

Request the reported pIC50 associated with CC1=CCCC(C)(C)C1/C=C/C1=NNC(c2cccc(C(F)(F)F)c2)C1 (centres unmarked)
5.24

Request the reported pIC50 associated with COc1ccc(C2CC(/C=C/C3=C(C)C(O)CCC3(C)C)=NN2C(C)=O)cc1OC (centres unmarked)
4.66

---

# Test system: MDA-MB-231 cells
# test-method-notes: Growth inhibition, MDA-MB-231 breast cancer cells
# Format: cell-based
# measurement-parameters: Homo sapiens, MDA-MB-231; Table 11; read-out: Cytotoxicity, IC50 (μM) MDA-MB231
quantity: IC50 (µM)
Reply with just the number (in µM).

Guide cases for IC50, answers given:
- compound: "CC(=O)N1N=C(/C=C/C2C(C)=CCCC2(C)C)CC1c1ccccc1F (stereo not shown)"
  IC50 (µM): 20.4
- compound: "CC(=O)N1N=C(/C=C/C2C(C)=CCCC2(C)C)CC1c1cccc(C(F)(F)F)c1 (stereo not shown)"
  IC50 (µM): 14.4

Request the reported IC50 associated with CC1=CCCC(C)(C)C1/C=C/C1=NNC(c2cccc(C(F)(F)F)c2)C1 (stereo not shown)
15.8

---

# Tested on: 22Rv1 cells
# test-method-notes: MTT cell growth inhibition, 22Rv1
# measurement-parameters: read-out: Cellular IC50 (μM) 22Rv1; Table 2; MTT, 72 h
Property: IC50; scope: individual compounds
Reply with just the number (in µM).

Guide cases for IC50, answers given:
- compound: "CCn1c2ccccc2c2cc(/C=C(\\C(=O)/C=C/C3=C(C)CCCC3(C)C)C(=O)/C=C/c3ccc(O)c(OC)c3)ccc21"
  IC50 (µM): 2.4
- compound: "COc1cc(/C=C/C(=O)CC(=O)/C=C/c2ccc(O)c(OC)c2)ccc1O [Curcumin, reference compound]"
  IC50 (µM): 18.3

Now consider the entry below.
Request the reported IC50 associated with COc1cc(/C=C/C(=O)/C(=C/c2ccc3ccccc3n2)C(=O)/C=C/C2=C(C)CCCC2(C)C)ccc1O
5.1

---

# Tested on: H-1975 cells
# test-method-notes: Growth inhibition, H-1975 lung cancer cells
# Format: cell-based
# measurement-parameters: Table 10; read-out: Cytotoxicity, IC50 (μM) H-1975
quantity: IC50 (µM)
Reply with just the number (in µM).

Record lookup: for H-1975 cells, what IC50 belongs to CC1=C(/C=C/C(=O)/C=C/c2cccc(C(F)(F)F)c2)C(C)(C)CCC1O (racemic) [Compound B25] ?
6.3

---

Below are compounds with their IC50 as measured on LNCaP cells.
Reply with just the number (in µM).

Guide cases for IC50, answers given:
- compound: "CCOC(OCC)c1cccc(/C=C/C(=O)/C=C/C2=C(C)C(O)CCC2(C)C)c1 (stereo not shown)"
  readout-number: 1.8
- compound: "COc1cc(/C=C/C(=O)/C=C/C2=C(C)CCCC2(C)C)ccc1O"
  readout-number: 9.5
- compound: "CC1=C(/C=C/C(=O)/C=C/c2cccc(C(F)(F)F)c2F)C(C)(C)CCC1O (racemic)"
  readout-number: 1.1

Record lookup: for LNCaP cells, what IC50 belongs to CCOc1ccc(/C=C/C(=O)/C=C/C2=C(C)CCCC2(C)C)cc1OCC ?
8.2

---

Below are molecules with their IC50 as measured on MDA PCa 2b cells.
Reply with just the number (in µM).

- molecule: "CC1=C(/C=C/C(=O)/C=C/c2cc(C(F)(F)F)ccc2C(F)(F)F)C(C)(C)CCC1O (racemic) [Compound B27]"
  readout-number: 4
- molecule: "CC1=C(/C=C/C(=O)/C=C/c2cccc(C(F)(F)F)c2)C(C)(C)CCC1O (racemic) [Compound B25]"
  readout-number: 2.6
- molecule: "CC1=C(/C=C/C(=O)/C=C/c2cccc(C)c2)C(C)(C)CCC1O (racemic) [Compound B38]"
  readout-number: 19
- molecule: "CC1=CCCC(C)(C)C1/C=C/C(=O)/C=C/c1ccccc1F (racemic) [Compound B19]"
  readout-number: 8.3
- molecule: "CC1=C(/C=C/C(=O)/C=C/c2ccccc2)C(C)(C)CCC1O (racemic) [Compound B23]"
  readout-number: 12.6

Record lookup: for MDA PCa 2b cells, what IC50 belongs to CC1=C(/C=C/C(=O)/C=C/c2cccc([N+](=O)[O-])c2)C(C)(C)CCC1O (racemic) [Compound B40] ?
6
